The values you see were collected from ChEMBL document CHEMBL4196130.

tgt: Glutamate NMDA receptor
assay-notes: Displacement of [3H]CCP from NMDA receptor glutamate binding site in rat cortical and hippocampal membranes

item-smiles	tgt	units-symbol	result-comparator	IC50
O=C(O)CCc1c(C(=O)O)[nH]c2ccc(Cl)cc12	Glutamate NMDA receptor	µM	=	35
O=C(O)CCc1c(C(=O)O)[nH]c2c(Cl)cccc12	Glutamate NMDA receptor	µM	>	1000

---

tgt: Uracil nucleotide/cysteinyl leukotriene receptor (Homo sapiens, UniProt Q13304)
Sequence (Q13304 whole entry): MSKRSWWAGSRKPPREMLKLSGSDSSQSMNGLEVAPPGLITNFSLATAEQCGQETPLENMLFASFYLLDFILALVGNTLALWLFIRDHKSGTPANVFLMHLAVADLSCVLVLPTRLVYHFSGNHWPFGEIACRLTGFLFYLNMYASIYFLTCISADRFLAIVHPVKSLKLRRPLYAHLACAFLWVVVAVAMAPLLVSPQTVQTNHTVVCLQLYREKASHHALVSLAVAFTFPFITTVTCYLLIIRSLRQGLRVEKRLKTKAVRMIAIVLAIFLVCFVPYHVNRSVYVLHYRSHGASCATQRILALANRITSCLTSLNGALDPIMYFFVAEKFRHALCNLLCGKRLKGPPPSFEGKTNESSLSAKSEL
assay-notes: Antagonist activity at human GPR17 expressed in human 1321N1 cells assessed as inhibition of MDL 29,951-induced calcium mobilization after 1 hr by Oregon Green BAPTA-1/AM dye-based fluorescence assay
pIC50: −log10 of the molar value.
Here, each record is paired with measured pIC50 data.

item-smiles	result-comparator	pIC50
O=C(O)Cc1c[nH]c2ccc(O)cc12	<	4.52
COc1ccc2c(CCC(=O)O)c(C(=O)O)[nH]c2c1	=	5.08
COc1ccc2c(c1)c(CC(=O)O)c(C)n2C(=O)c1ccc(Cl)cc1	=	4.54
N[C@@H](Cc1c[nH]c2ccccc12)C(=O)O	<	4.52
CN(C)CCc1c[nH]c2ccc(Cn3cncn3)cc12	<	4.52

---

Collected EC50 values appear next to each entry.
tgt: Uracil nucleotide/cysteinyl leukotriene receptor (Mus musculus, UniProt Q6NS65)
Sequence (Q6NS65 whole entry): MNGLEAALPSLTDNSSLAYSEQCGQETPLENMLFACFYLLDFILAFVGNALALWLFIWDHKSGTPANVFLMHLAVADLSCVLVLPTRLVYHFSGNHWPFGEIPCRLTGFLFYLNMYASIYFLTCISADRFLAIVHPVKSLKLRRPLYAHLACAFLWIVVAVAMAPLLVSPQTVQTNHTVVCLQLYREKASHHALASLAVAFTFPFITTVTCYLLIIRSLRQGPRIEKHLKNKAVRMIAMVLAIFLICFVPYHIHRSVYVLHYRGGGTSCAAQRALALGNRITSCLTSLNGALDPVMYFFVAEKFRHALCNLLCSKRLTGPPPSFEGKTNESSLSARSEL
assay-notes: Agonist activity at mouse GPR17 expressed in HEK293 cells assessed as induction of intracellular calcium mobilization by calcium 5-dye based assay
property-measured: EC50 (µM)

item-smiles	measured-value
O=C(O)CCc1c(C(=O)O)[nH]c2cc(Cl)cc(Cl)c12	1.11
CCCCCCOc1ccc2c(CCC(=O)O)c(C(=O)O)[nH]c2c1	5.51
CCCCCCOc1cc(Cl)c2c(CCC(=O)O)c(C(=O)O)[nH]c2c1	3.03

---

tgt: P2Y purinoceptor 2 (Homo sapiens, UniProt P41231)
Sequence (P41231 whole entry): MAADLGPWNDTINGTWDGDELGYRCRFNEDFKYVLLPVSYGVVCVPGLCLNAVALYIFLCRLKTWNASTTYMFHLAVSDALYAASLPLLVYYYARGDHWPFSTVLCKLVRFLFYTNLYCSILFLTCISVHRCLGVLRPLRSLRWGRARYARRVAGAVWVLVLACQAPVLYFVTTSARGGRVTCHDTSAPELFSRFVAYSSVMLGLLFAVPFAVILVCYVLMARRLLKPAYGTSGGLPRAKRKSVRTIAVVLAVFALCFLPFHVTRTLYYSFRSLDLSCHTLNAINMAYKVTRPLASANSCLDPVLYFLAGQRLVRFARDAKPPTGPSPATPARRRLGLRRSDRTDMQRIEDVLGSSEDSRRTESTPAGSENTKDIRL
assay-notes: Agonist activity at human P2Y2 receptor transfected in human 1321N1 cells assessed as induction of calcium mobilization after 30 mins in presence of UTP by fluo-4 dye based assay
pEC50: −log10 of the molar value.
property-measured: pEC50

item-smiles	measured-value
CCCCCCOc1cc(Cl)c2c(CCC(=O)O)c(C(=O)O)[nH]c2c1	≤ 4.30

---

tgt: Uracil nucleotide/cysteinyl leukotriene receptor (Homo sapiens, UniProt Q13304)
assay-notes: Agonist activity at human GPR17 expressed in human 1321N1 cells assessed as induction of calcium mobilization at >100 uM after 1 hr by Oregon Green BAPTA-1/AM dye-based fluorescence assay relative to control
Type: functional, cell-based
Entries annotated with measured Activity
property-measured: Activity (%)

item-smiles	tgt	property-measured	units-symbol	measured-value
O=C(O)CCc1c(C(=O)O)[nH]c2cccc(-c3ccccc3)c12	Uracil nucleotide/cysteinyl leukotriene receptor (Homo sapiens, UniProt Q13304)	Activity	%	3
O=C(O)CCc1c(C(=O)O)[nH]c2c(Cl)c(Cl)ccc12	Uracil nucleotide/cysteinyl leukotriene receptor (Homo sapiens, UniProt Q13304)	Activity	%	5
COc1cccc2[nH]c(C(=O)O)c(CCC(=O)O)c12	Uracil nucleotide/cysteinyl leukotriene receptor (Homo sapiens, UniProt Q13304)	Activity	%	4
O=C(O)CCc1c(C(=O)O)[nH]c2c(F)c(-c3cccs3)ccc12	Uracil nucleotide/cysteinyl leukotriene receptor (Homo sapiens, UniProt Q13304)	Activity	%	21
COc1ccc2c(CCC(=O)O)c(C(=O)O)[nH]c2c1	Uracil nucleotide/cysteinyl leukotriene receptor (Homo sapiens, UniProt Q13304)	Activity	%	35
